test system: OVCAR-3 ovarian; assay: NCI-60 one-dose screen, 48 h; conditions: 10 µM unless noted
The panel holds about 83,000 compounds, 20% with a hit somewhere; the sample as a whole holds those more often. Activity calls are given as the source filed them. How the source made its calls: active means growth percent below 10; inactive means the rest.
Outcomes: label 1 for active, label 0 for inactive

{"compound": "C=C1CCC2C3(C)COC(c4ccc(NC(C)=O)cc4)OC3CCC2(C)C1C/C=C1/C(=O)OCC1O (centres undefined)", "label-value": "label 0"}
{"compound": "N#Cc1c(N)nnn1Cc1cc(=O)oc2ccc(O)cc12", "label-value": "label 0"}
{"compound": "Cc1ccc(S(=O)(=O)OC[C@@]2(C)CC[C@]3(C)CC[C@]4(C)C(=C3C2)C=C[C@@H]2[C@@]3(C)CCCNC(C)(C)[C@@H]3CC[C@]24C)cc1", "label-value": "label 0"}
{"compound": "CCCCCCCCCCCCCCCCCCOc1cccc(CC(=O)OCC[N+](CC)(CC)CC)c1", "label-value": "label 0"}
{"compound": "CCOC(=O)C(=CCC(C)C)C(=O)OCC", "label-value": "label 0"}
{"compound": "COc1ccc(CCNC(=O)COc2cc3c(Nc4ccc(F)c(Cl)c4)ncnc3cc2OC)cc1OC", "label-value": "label 0"}
{"compound": "CC1=C2[C@@H](CC1)[C@]1(C)O[C@@](C(C)C)(C[C@H]1OC(=O)CO)[C@H]2OC(=O)C1CC1c1ccccc1 (some centres undefined)", "label-value": "label 0"}
{"compound": "COc1c(F)cc(-n2c(C(=O)N3CC(F)C3)cc3cccnc32)cc1F", "label-value": "label 0"}
{"compound": "Cc1cc2nc(C(Cl)Cl)nc(-c3ccc(Cl)cc3)n2n1", "label-value": "label 1"}

---

tested on: SK-MEL-28 melanoma; assay: NCI-60 one-dose screen, 48 h (100 = growth as untreated, 0 = no growth, -100 = all killed); conditions: 10 µM unless noted
The panel holds about 83,000 compounds, 20% with a hit somewhere; the sample as a whole holds those more often.

{"molecule": "CCCN1C(=O)/C(=c2\\sc3n(c2=O)C2C(NN=3)N(CC)C(=O)N2CC)c2ccccc21 (stereo not drawn)", "growth [%]": 48.1}
{"molecule": "COc1cc(Cl)cc(-c2nn(C(=O)NS(=O)(=O)c3ccc(Cl)cc3)cc2-c2ccncc2)c1", "growth [%]": 95.8}
{"molecule": "O=C(CCN1CCOCC1)Nc1cccc(-n2cc(-c3ccncc3)c(-c3ccc(Cl)c(O)c3)n2)c1", "growth [%]": 49.6}
{"molecule": "O=C1OCC2=C1C(c1cccc(C(F)(F)F)c1)c1cc3c(cc1N2CCO)OCCO3 (stereo not drawn)", "growth [%]": 50}
{"molecule": "[Cu+].[NH-][C@H]1C[N-]C(=O)[C@H]([C@H]2CCN=C(N)N2)[N-]C(=O)/C(=C\\NC(N)=O)[N-]C(=O)[C@H](CNC(=O)C[C@@H](N)CCCN)[N-]C(=O)[C@H](CO)[N-]C1=O", "growth [%]": 110}
{"molecule": "C=C1C(=O)O[C@H]2[C@H]1CC/C(CNS(=O)(=O)c1ccc3ccccc3c1)=C\\CC[C@@]1(C)O[C@@H]21", "growth [%]": -8.36}
{"molecule": "COc1ccc(/C(C)=C(\\c2ccc(OCCN3CCOCC3)cc2)c2ccc(OC(=O)C3CCCCC3)cc2)cc1", "growth [%]": 106}
{"molecule": "Cc1ccc(S(=O)(=O)Nc2cc(Sc3ccccc3)c(O)c3ccccc23)cc1", "growth [%]": 84.8}
